Value source: PubChem BioAssay (NCI)

system: TK-10 renal; test: NCI tumour cell line growth inhibition, 48 h
Entries and their measured TGI follow.

COMPOUND | TGI
C(/C=N/NC1=NCCCCN1)=N\NC1=NCCCCN1 | > 100 µM
CN1C(=O)c2ccc3ccccc3c2C1=O | > 100 µM
COC(C/C(=C/CO[Si](C(C)C)(C(C)C)C(C)C)C(=O)N(COCC[Si](C)(C)C)c1ccccc1I)OC | > 100 µM
COc1ccccc1/C=C1\COc2ccc(-c3ccccc3)cc2C1=O | 7.91 µM
C/C=C(\C)C(=O)OC1CC(OC(C)=O)C2(C(=O)OC)COC3C2C1(C)C1C2(C(=O)OC)OCC1(C3O)C1(O)C3CC(C4(O)C=COC4O3)C1(C)O2 (centres undefined) | > 100 µM
C=CO/N=[N+](\[O-])N(CC)CC | > 100 µM
COC(=O)CCC(NC(=S)N/N=C(\C)c1ccc[nH]1)C(=O)OC (centres undefined) | > 100 µM
Cc1c(C(=O)c2ccc(N)c3ccccc23)c2ccccc2n1CCN1CCOCC1 | > 82.2 µM
CSC(SC)=C(C#N)C(=O)Nc1cccc(Cl)c1 | > 100 µM
